Assay: Particle size distribution of ORZY-05 by static automated imaging (Morphologi 4)
Type: physicochemical
Conditions: ORZY-05 particles
This section presents compounds with their documented Number Length D50 values.
Metric Name: Number Length D50 (μm)

Compound | Metric Name | Unit String | Assay Result
O=C(O)CC(O)(CC(=O)O)C(=O)O.[O-][n+]1cccc(/C(Cl)=N/OC[C@H](O)CN2CCCCC2)c1 [17-003, arimoclomol citrate] | Number Length D50 | μm | 3.20
O=C(O)CC(O)(CC(=O)O)C(=O)O.[O-][n+]1cccc(/C(Cl)=N/OC[C@H](O)CN2CCCCC2)c1 [compound 1003, arimoclomol citrate] | Number Length D50 | μm | 9.50
O=C(O)CC(O)(CC(=O)O)C(=O)O.[O-][n+]1cccc(/C(Cl)=N/OC[C@H](O)CN2CCCCC2)c1 [17-001, arimoclomol citrate] | Number Length D50 | μm | 4.70
O=C(O)CC(O)(CC(=O)O)C(=O)O.[O-][n+]1cccc(/C(Cl)=N/OC[C@H](O)CN2CCCCC2)c1 [17-004, arimoclomol citrate] | Number Length D50 | μm | 4.00
O=C(O)CC(O)(CC(=O)O)C(=O)O.[O-][n+]1cccc(/C(Cl)=N/OC[C@H](O)CN2CCCCC2)c1 [compound 1001, arimoclomol citrate] | Number Length D50 | μm | 7.03
O=C(O)CC(O)(CC(=O)O)C(=O)O.[O-][n+]1cccc(/C(Cl)=N/OC[C@H](O)CN2CCCCC2)c1 [18-003, arimoclomol citrate] | Number Length D50 | μm | 29.90

====

Entries and their Volume CE Diameter D50 values follow.
Experiment: Particle size distribution of ORZY-05 by static automated imaging (Morphologi 4)
Format: physicochemical
Conditions: ORZY-05 particles
Metric Name: Volume CE Diameter D50 (μm)

Compound | Assay Result
O=C(O)CC(O)(CC(=O)O)C(=O)O.[O-][n+]1cccc(/C(Cl)=N/OC[C@H](O)CN2CCCCC2)c1 [17-001, arimoclomol citrate] | 24.70
O=C(O)CC(O)(CC(=O)O)C(=O)O.[O-][n+]1cccc(/C(Cl)=N/OC[C@H](O)CN2CCCCC2)c1 [17-003, arimoclomol citrate] | 11.10
O=C(O)CC(O)(CC(=O)O)C(=O)O.[O-][n+]1cccc(/C(Cl)=N/OC[C@H](O)CN2CCCCC2)c1 [18-004, arimoclomol citrate] | 39.80

====

Assay: Particle size distribution of ORZY-05 by static automated imaging (Morphologi 4)
Assay type: physicochemical
Details: ORZY-05 particles

Compound | Number Length D10
O=C(O)CC(O)(CC(=O)O)C(=O)O.[O-][n+]1cccc(/C(Cl)=N/OC[C@H](O)CN2CCCCC2)c1 [18-001, arimoclomol citrate] | 1.80 μm
O=C(O)CC(O)(CC(=O)O)C(=O)O.[O-][n+]1cccc(/C(Cl)=N/OC[C@H](O)CN2CCCCC2)c1 [17-002, arimoclomol citrate] | 1.10 μm
O=C(O)CC(O)(CC(=O)O)C(=O)O.[O-][n+]1cccc(/C(Cl)=N/OC[C@H](O)CN2CCCCC2)c1 [17-003, arimoclomol citrate] | 1.40 μm
O=C(O)CC(O)(CC(=O)O)C(=O)O.[O-][n+]1cccc(/C(Cl)=N/OC[C@H](O)CN2CCCCC2)c1 [compound 1004, arimoclomol citrate] | 2.82 μm
O=C(O)CC(O)(CC(=O)O)C(=O)O.[O-][n+]1cccc(/C(Cl)=N/OC[C@H](O)CN2CCCCC2)c1 [compound 1003, arimoclomol citrate] | 4.20 μm
O=C(O)CC(O)(CC(=O)O)C(=O)O.[O-][n+]1cccc(/C(Cl)=N/OC[C@H](O)CN2CCCCC2)c1 [18-002, arimoclomol citrate] | 1.50 μm
